The values you see were collected from PubChem BioAssay AID1963830.

- Tested on: 922993-354-T-J3-PDC complex spheroid viability;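 also: spheroids exposed to the agents for one week; 100% = DMSO vehicle control wells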
- TEST SUMMARY: Anticancer human tumor 922993-354-T-J3-PDC patient-derived endometrial carcinoma cell line growth inhibition [POLQ]
- PROTOCOL CONDITIONS: second compound 0.1 µM; first compound 0.1 µM; stronger effect = lower value
Below, each entry is listed alongside its reported viability, T/C.
METRIC NAME: viability, T/C (%)

{"columns": ["MOLECULE", "TARGET UNDER TEST", "OUTPUT UNIT", "OBSERVED RESULT"],
 "data": [
  ["COc1ccc([C@@H](O)c2cc(-c3ncnc4cc(N5CCOCC5)ccc34)c(F)cc2Cl)nn1 + Cc1cccc(N(C)C(=O)C2C(O)CCN2c2nc(C)cc(C(F)(F)F)c2C#N)c1", "922993-354-T-J3-PDC complex spheroid viability", "%", 99.5],
  ["CC1COCCN1c1cc(-c2ccnn2C)c2ccnc(-c3ccn[nH]3)c2n1 (stereo unspecified) + COC1C(OC(N)=O)C(O)C(Oc2ccc3c(O)c(NC(=O)c4ccc(O)c(CC=C(C)C)c4)c(=O)oc3c2C)OC1(C)C", "922993-354-T-J3-PDC complex spheroid viability", "%", 69.9],
  ["CCc1c2c(nc3ccc(O)cc13)-c1cc3c(c(=O)n1C2)COC(=O)[C@]3(O)CC + COC1C(OC(N)=O)C(O)C(Oc2ccc3c(O)c(NC(=O)c4ccc(O)c(CC=C(C)C)c4)c(=O)oc3c2C)OC1(C)C", "922993-354-T-J3-PDC complex spheroid viability", "%", 12.7],
  ["CC1COCCN1c1cc(C2(S(C)(=N)=O)CC2)nc(-c2ccnc3[nH]ccc23)n1 (stereo unspecified) + Cc1cccc(N(C)C(=O)C2C(O)CCN2c2nc(C)cc(C(F)(F)F)c2C#N)c1", "922993-354-T-J3-PDC complex spheroid viability", "%", 95.4],
  ["Nc1ccn(C2OC(CO)C(O)C2(F)F)c(=O)n1 (stereo unspecified) + Cc1cccc(N(C)C(=O)C2C(O)CCN2c2nc(C)cc(C(F)(F)F)c2C#N)c1", "922993-354-T-J3-PDC complex spheroid viability", "%", 10.9],
  ["COc1cc2cc(C(=O)CCC(=O)O)sc2cc1OC + Nc1ccc(C#CCN(C(=O)Cc2ncc(C(F)(F)F)cc2C(F)(F)F)c2ccc(F)cc2)nn1", "922993-354-T-J3-PDC complex spheroid viability", "%", 105]
]}
